Where these numbers come from: the DeepSol protein solubility set

- protocol summary: soluble on expression in E. coli; label from the status in PepcDB or PDB records
endpoint: soluble on expression in E. coli

residue_string=MGSDKIHHHHHHMEIKETYDFSSIVDLWNKNIGTVYPMNLELFKQNYINDRQRKKIMGAFNGEILIGFVIYKQWTYKSGSLKPNHKIGYINSIIVDINFRHQGIGTKLLDAAEEELINSGVKILRCGSDTYHFFPGIPLECLPSEEFFLVRGYKMQDYFYDLIGDVSKVDFKKPSIKDGFKVNVMKPEDRKGLFEFLEKSFSGRWLEEFIEFFQVGMKERDIVLIKYKTSVIGFSHIYDNKSSFIGPPIYWKALLGHNYGGLGPIGIDKTYRKQGLGRLLLYESLQILKKREVKKMVIDWTEKDIINFYGRFNFMPWKAYRKATKEVKDGKG endpoint="soluble on expression in E. coli" test_value="not soluble"
residue_string=MNYHQYYPIDVVNGPGTRCTLFVSGCVHQCRGCYNQSTQRLDSGVLFTQEAEDKIINDLNDTRIKRRGLSLSGGDPLHPANVPHILKIVKRVREECPGKDIWVWTGYTLAELDDAQREVVQYIDVLIDGKFEQDKKDLNLEWRGSSNQIIHRFTDILEHHHHHH endpoint="soluble on expression in E. coli" test_value="not soluble"

* * *

- protocol summary: soluble on expression in E. coli; label from the status in PepcDB or PDB records
endpoint: soluble on expression in E. coli

residue_string=MGSDKIHHHHHHMASYHLNAKMAQDIVSRTMQIIDSNINVMDARGKIIGSGDQERLGELHEGALLALSQGRVVDIDDAVARHLHGVRPGINLPLRIDGEIVGVIGLTGNPSQLRQYGELVCMTAEMMLEQARLLHMLAQDSRLREELVLNLVRTDDLSPALMEWAQRLGIDMNKPRVAAVIEVDSGQLGVDSAMAELQQLQTLLTTPERDNLIAIVSLTEMVVLKPALNSHGRWDAEEHRRRVDTLMSRMAESSRLRVRLALGNYFAGPGSIARSYRTARTTMSVGKQRMPAQRCYYYQDLMLPVLLDSLRGGWQANELVRPLSKLKAMDGNGLLRRTLGAWFRNNVQPGATAKALFIHRNTLEYRLNRISELTGLDLGNFDDRLLLYVALQLDEEE endpoint="soluble on expression in E. coli" test_value="not soluble"
residue_string=MDRMDKAAKINIINANVRNAQTGDYYYNPYKIVNKTFTDTDGKQVTLKIGITGVLPTQILVWDKANLEGKVTVDDPMEAVKTIVPQMKAAGADFILVAAHSGIGDNEYTKNEENEGYQIAGIEGVDAVATGHSHADFPNGDGTSFYAKYPGVDDVNGLINGKPVVMAGKFGDHLGIMDVKLTYTDGKWKVVNSKAKLEKIDTKSDIADKALIDMAAHDHDGTILTMFVRKLVRPL endpoint="soluble on expression in E. coli" test_value="not soluble"
residue_string=MGSDKIHHHHHHMIKVSQLTVRYGELKAVEDLSLEVQRGEILSLVGPSGCGKTTVVKAILGLIPYEGKIEIFTSRLGYCPQKDVLFDWMTVYENAVLPLVLRKEQPPSNIKELFERFGLSGFEEKRPYQLSGGMRQKLSLLRAVLSGEELLVLDEPFSSVDAYTRKKLQIWLSEIVHRMKSTVVLITHDVEEAVFLSDRILILSDRPARILKEIRVPFSKPRTIKTFSDPRFSEIEEEVLETLMNQP endpoint="soluble on expression in E. coli" test_value="not soluble"
residue_string=MGSDKIHHHHHHLKVLMYSISLAYMIRNLPYASLRAFEAVVRLGSFSAAAGDLGVSQSAVSQHVKSLEEWLGQELLVRGARASKGTRYGTLLAREIDRGLGGISEVCTQIRAASHSDTTVVISCLPGFAFTWLFPRLLRFDLAHPDLSISIATDTGGRPFNPADADIGIRYGHGEFPNLRVDHLMGERLFPVCAPQVAERLTDVASLGQHTLLQDEILNFGSANPSWEYWAEACGVHLPSRARTRRFGQSNLVLQAAIEGLGVALGREPLVLDALTDGRLVRPFTQNVKSPLSYWLVRRKQADDSPKVQEFLKWIKKEAETQPDIPASLNKFA endpoint="soluble on expression in E. coli" test_value="not soluble"

Below are some sequences; for each one, tell me its soluble on expression in E. coli.
1. MGLIFAKLWSLFCNQEHKVIIVGLDNAGKTTILYQFLMNEVVHTSPTIGSNVEEIVVKNTHFLMWDIGGQESLRSSWNTYYSNTEFIILVVDSIDRERLAITKEELYRMLAHEDLRKAAVLIFANKQDMKGCMTAAEISKYLTLSSIKDHPWHIQSCCALTGEGLCQGLEWMTSRIGVR
2. PSTLELLKDVHLGLPVPCHDPARLALLSGHYLYYHYGCDGLDDRGWGCGYRTLQTLCSWPGGQSSGVPGLPALQGALEAMGDKPPGFRGSRNWIGCVEASLCLEHFGGPQGRLCHLPRGVGLRGEEERLYSHFTTGGGPVMVGGDADAQSKALLGICEGPGSEVYVLILDPHYWGTPKNRCELQAAGWVGWQKVKSVFDSNSFYNLCFTRLEHHHHHH

Result:
["soluble", "soluble"]

* * *

- protocol summary: soluble on expression in E. coli; label from the status in PepcDB or PDB records
endpoint: soluble on expression in E. coli

In the examples that follow, each entry is paired with its recorded soluble on expression in E. coli.
residue_string=MHHHHHHMSGGLTPDQAIDAIRGTGGAQPGCRALHAKGTLYRGTFTATRDAVMLSAAPHLDGSTVPALIRFSNGSGNPKQRDGAPGVRGMAVKFTLPDGSTTDVSAQTARLLVSSTPEGFIDLLKAMRPGLTTPLRLATHLLTHPRLLGALPLLREANRIPASYATTEYHGLHAFRWIAADGSARFVRYHLVPTAAEEYLSASDARGKDPDFLTDELAARLQDGPVRFDFRVQIAGPTDSTVDPSSAWQSTQIVTVGTVTITGPDTEREHGGDIVVFDPMRVTDGIEPSDDPVLRFRTLVYSASVKLRTGVDRGAQAPPV endpoint="soluble on expression in E. coli" test_value=soluble
residue_string=MDFKQYSPEELKECSMIEVVHSVLGDKKQATTFNELVQEIAQVLGLSQEQVNAKIAQFYTDLNIDGRFINLGENRWGLRSWYPYEQIDEEILPQPKPKKKRKVEEDGFDDYIDEDEDDFDDVDGNEDEDDDVEDLDKVLEDEDGDDDDLDDLDEDEDDFAEEELEYDETEEEEEEEL endpoint="soluble on expression in E. coli" test_value="not soluble"
residue_string=GSHMLESSAEESLAYREDDLRGRLGKVITAVPVDGFGEVVIEGIGGTISKSAVSFDNQQISYGTTVLVVDINNGVLSVTPHEPI endpoint="soluble on expression in E. coli" test_value=soluble
residue_string=MEPLMNQSLHICGCCKRELPHEAFYTNKRTGTLDNYCKECRKANTRKRRDLRRCTSFENKPVSYPVITEVKDPALRMLLILHARQVVAESISRKQEKEKLNTLWEE endpoint="soluble on expression in E. coli" test_value="not soluble"
residue_string=MPYQQITVNVNDAVAERLADALMEHGALSAAIEDAYAGTQNEQAIFGEPGMPAEQIWQQSKVIALFGEHDEAAAIIQTATQECGLK endpoint="soluble on expression in E. coli" test_value="not soluble"

Below are some sequences; for each one, tell me its soluble on expression in E. coli.
1. NPQTSVSNTGKEADATKNQTSKADQVSAPYEGTGKTSKSLYGGQTELEKNIQTLQPSSIIGTDERTRISSTTSFPYRATVQLSIKYPNTSSTYGCTGFLVNPNTVVTAGHCVYSQDHGWASTITAAPGRNGSSYPYGTYSGTMFYSVKGWTESKDTNYDYGAIKLNGSPGNTVGWYGYRTTNSSSPVGLSSSVTGFPCDKTFGTMWSDTKPIRSAETYKLTYTTDTYGCQSGSPVYRNYSDTGQTAIAIHTNGGSSYNLGTRVTNDVFNNIQYWANQ
2. MNVFYTREGVGDVLLVSLKPAADEERTFVRQGDVVRIMSERTGETVGYNIFSASSYYPFSGNGPLEVNEELVGVINDILAKNGFDEPIEADLSPKFVVGYVKEKTKHPNADKLSVCQVDVGGEVLQIVCGAPNVAEGQKVVVAKIGAVMPNGLVIQESELRGVRSSGMICSARELGLPNAPQEKGILVLSDEYEVGQPFVF
3. MKVDVDEKTYIITMANDITKLYEENKRNLHYSITDPLTGAYNRKYLNDRFDIFIGDYIVLIDLDNFKMINDYEGHNVGDKILCDFVSLLNKELINSTSIIRLGGDEFIVIFSSDVDKNYVYSQLEALRENFLKVFSKYKYLSFSYGVDTVKRNLKLTIVELDKKMYKNKEKLEHHHHHH

Result:
1: not soluble; 2: not soluble; 3: not soluble

* * *

- protocol summary: soluble on expression in E. coli; label from the status in PepcDB or PDB records
endpoint: soluble on expression in E. coli

residue_string=MSFQNQFTKTTTDANLMETVHHGSAEYPFRYYYENIALFDFKCIDWHWHSELEFIYIESGNVVFDIGTVHFELNEGNGIMINSKILHRLQSSSDAIIPNFLFQPSFIAPQDSLIYKKYINPVISSSLEYLVFQPDIPWQKKALEIIKTIIAVQETEFNREIIVSMSVQQLWILLLENLTFDQFENMGAVISRTRLQLMMQYVHAHYSENITLEDIARTANISKSTALHLFQNNLKLTPVKYLINYRLTQAALLLINTEEKIATISNNTGFNNVDHFCRTFKKTYKMTPTDYRNQERAPVS test_value="not soluble"
residue_string=MGHHHHHHSHMANSMANSLSSTQTDYRLSDDLLGPVLAILDAYIDPYLAKGLVSAGCVNKLAIEGKRLQLGLVYPYPCMTQYRDTVMALTNKLAVLDAIDEVECEIDFQPKVYSAIASIAPIANVKQVIAVASGKGGVGKSTTAVNLALALAAEGAQVGILDADIYGPSVPLMLGIPNFRPVSPDGKHMTAASAYGIAAQSIGFMLSGDEAAVWRGPMAAGALAQLLNETQWPELDYLVVDMPPGTGDIQLTLSQKVPVSGAVIVTTPQDIALADAKKGITMFQKVNIPVLGIVENMSFHLCPECGHKEHPFGTHGGSKMAERYQVPLLGALPLHINIREAMDVGAPTVVAEPDSEVAALYREIARKVGAELALKQSQKTVSISVSDDE test_value="not soluble"
